Test system: Fibroblast
protocol_summary: Multiplex assay against human fibroblast
Assay type: toxicity, cell-based
measurement_conditions: 48 h, 10 µM, compound concentration 10 uM, replicate 2
measured_endpoint: Population Membrane Permeable-Phenotype (%)
Units required after the number.

See these solved cases before continuing.
INSERT INTO results (molecule, experimental_value) VALUES
  ('COc1cc(OC2CCN(C(C)=O)CC2)ccc1C(=O)N1CCC(N2C(=O)OCc3ccccc32)CC1', '3%'),
  ('COc1ccc2c(c1OCc1ccccc1)C[C@@H](C(=O)O)N(C(=O)C(c1ccccc1)c1ccccc1)C2 [OLODANRIGAN]', '3%'),
  ('CN1CCN(c2ccc(Nc3c4ccccc4nc4ccccc34)cc2)CC1.Cl.Cl.O', '25%'),
  ('Cn1cc(C(=O)OCC2CCN(CCNS(C)(=O)=O)CC2)c2ccccc21', '2%'),
  ('CC(C)(O)C(=O)N1CCN(c2ccc(C(F)(F)F)c(C3=C(c4c[nH]c5ccccc45)C(=O)NC3=O)c2)CC1', '10%'),
  ('O=C(O)CCC/C=C\CC1C(O)CC(O)C1/C=C/C(O)COc1cccc(Cl)c1 (stereo not drawn) [CLOPROSTENOL]', '4%'),
  ('COCCCN1CCC(NC(=O)c2cc(Cl)c(N)c3c2OCC3)CC1 [PRUCALOPRIDE]', '7%');

### Prompt Fill in the recorded Population Membrane Permeable-Phenotype (%) for this molecule, with Fibroblast as test system: `O=C(Nc1cc(-c2ccccc2)nn1-c1ccccc1F)c1ccc([N+](=O)[O-])cc1`
### Response 6%

* * *

Tested on: HEK-293T
protocol_summary: Multiplex assay against HEK293T
Assay type: toxicity, cell-based
measurement_conditions: human, 48 h, 1 µM, compound concentration 1 uM, replicate 1
measured_endpoint: Population Pyknosed Nuclei (%)
The reply should contain only the number, in %.

INSERT INTO measurements (molecule, measurement_target, experimental_value) VALUES
  ('Cc1c(Cc2ccc3ccccc3n2)c2cc(F)ccc2n1CC(=O)O [TIMAPIPRANT]', 'HEK-293T', 8),
  ('Nc1nc(CC(=O)Nc2ccc(CCNC[C@H](O)c3ccccc3)cc2)cs1 [MIRABEGRON]', 'HEK-293T', 5),
  ('COc1ccc2c(c1OCc1ccccc1)C[C@@H](C(=O)O)N(C(=O)C(c1ccccc1)c1ccccc1)C2 [OLODANRIGAN]', 'HEK-293T', 5),
  ('CC(C)C[C@H](CO)Nc1nc(S[C@@H](C)c2ccccc2)nc2nc(N)sc12 [AZD-8797]', 'HEK-293T', 6);

Now take the following molecule into account.
### Prompt I'd like to know its Population Pyknosed Nuclei (%). The molecule in question is `O=C(Nc1cc(-c2ccccc2)nn1-c1ccccc1F)c1ccc([N+](=O)[O-])cc1`
### Response 7

* * *

Test system: Fibroblast
protocol_summary: Multiplex assay against human fibroblast
Assay type: toxicity, cell-based
measurement_conditions: 12 h, 10 µM, compound concentration 10 uM, replicate 1
Each entry below lists one item and its recorded Population Normal (%) value.
Please state the figure in %; there is no need to write the unit.

INSERT INTO measurements (input_smiles, experimental_value) VALUES
  ('CN1CCN(c2ccc(Nc3c4ccccc4nc4ccccc34)cc2)CC1.Cl.Cl.O', 91),
  ('Nc1nc(-c2ccco2)c2cnn(Cc3ccccc3F)c2n1', 91),
  ('COc1cc(Nc2ncc3c(n2)-c2ccc(Cl)cc2C(c2c(F)cccc2OC)=NC3)ccc1C(=O)O', 86);

### Prompt What value of measured Population Normal (%) is listed for `CN(C)C(=O)Cn1cc(-c2ccc(-c3nnc4ccccn34)cc2)cn1` ?
### Response 96

### Prompt I'd like to know its Population Normal (%). The compound in question is `CCCCC[C@H](O)/C=C/[C@H]1[C@H](O)CC(=O)[C@@H]1CCCCCCC(=O)O`
### Response 94

### Prompt Query: Population Normal (%); subject: `S=C(NCCCc1c[nH]cn1)NCCCN(Cc1ccc(Cl)c(Cl)c1)c1ccc(Br)cn1`
### Response 96

### Prompt Looking for the measured Population Normal (%) of `N[C@](CC1c2ccccc2Oc2ccccc21)(C(=O)O)[C@H]1C[C@@H]1C(=O)O` , can you help?
### Response 98

### Prompt Entry under review: `COCCn1c(C)c(C)s/c1=N\C(=O)C1C(C)(C)C1(C)C` . Reported Population Normal (%)?
### Response 97
